Experiment: gradient 5% acetonitrile 3 min, to 50% in 2 min, to 85% in 15 min, held 3 min, 100 µL/min
Conditions: column: Zorbax Extend-C18 2.1 x 50 mm; eluents: water / acetonitrile, 0.1% formic acid
OBSERVATION TYPE: RP-LC retention time (s)

Use these answered entries as a reference point.
Cc1ccc(NC(=O)Cn2c(=O)n(-c3ccccc3)c(=O)c3c2cc(C)n3C)cc1C | 886
COc1ccc(CNC(=O)c2cn3ccccc3n2)cc1OC | 605
O=C(Nc1ccc2nnc(-c3ccc(C(=O)N4CCSCC4)cc3)n2c1)C1CCC1 | 885
COc1ccc(C(=O)N2CCc3ccc(C(=O)NC4CCN(C)CC4)cc32)cc1 | 618

I. Cc1ccc(C(=O)N2CCCn3cc(-c4ccccc4)nc32)cn1
II. CCOc1ccccc1N1CCN(C(=O)CSc2nccnc2Oc2ccc(C)cc2)CC1
Between I and II , which one shows the larger RP-LC retention time value? Your answer should be the label of the entry you select.
II
(II: 1020 s, I: 605 s)

----------
Test: gradient 5% acetonitrile 3 min, to 50% in 2 min, to 85% in 15 min, held 3 min, 100 µL/min
Settings: column: Zorbax Extend-C18 2.1 x 50 mm; eluents: water / acetonitrile, 0.1% formic acid
OBSERVATION TYPE: RP-LC retention time (s)

COc1ccc(C(=O)Nc2nsc(-c3ccccc3)n2)cc1 | 778
O=C(Nc1ccc(Cl)c(Cl)c1)N1CCN(c2ncc(C(F)(F)F)cc2Cl)CC1 | 940
O=C(NC1CC1)C1CCN(c2nc3ccsc3c(=O)n2Cc2ccc(F)cc2)CC1 | 768
CN(C)C(=O)CN1CCN(c2ccc(NC(=O)C(C)(C)C)c(C(=O)O)c2)CC1 | 595
CCC(C(=O)NC(C)C)n1nc(C)c2nn(-c3ccccc3)c(C)c2c1=O (stereo not given) | 831

----------
Experiment: gradient 5% acetonitrile 3 min, to 50% in 2 min, to 85% in 15 min, held 3 min, 100 µL/min
Settings: column: Zorbax Extend-C18 2.1 x 50 mm; eluents: water / acetonitrile, 0.1% formic acid
OBSERVATION TYPE: RP-LC retention time (s)

Use these answered entries as a reference point.
Cc1noc(-c2cccc(OC3CN(C(=O)c4cccc5[nH]ccc45)C3)c2)n1 | 824
Cc1csc(-c2ccc(N3CCN(C(=O)c4ccc5ccccc5n4)CC3)nc2)n1 | 833
O=C(NCc1cccs1)C1CCN(c2cc(-n3ccnc3)ncn2)CC1 | 564
O=C(c1cc(F)ccc1F)N1CCc2nc(-c3ccc(Cl)cc3)ncc2C1 | 1090
CN1CCCCCC(O)c2cc(C(=O)NCCC3=CCCCC3)ccc21 (centres undefined) | 703

I. CCOc1ccc(NC(=O)c2cnc(-c3ccc(OC)cc3)nc2-c2ccncc2)cc1
II. Cc1cccc(NC(=O)c2ccc(N3CCCC3)nn2)n1
Between I and II , which one shows the larger RP-LC retention time value? Your answer should be the label of the entry you select.
I
(I: 875 s, II: 612 s)

----------
Assay: gradient 5% acetonitrile 3 min, to 50% in 2 min, to 85% in 15 min, held 3 min, 100 µL/min
Conditions: column: Zorbax Extend-C18 2.1 x 50 mm; eluents: water / acetonitrile, 0.1% formic acid
OBSERVATION TYPE: RP-LC retention time (s)

CC(C)NC(=O)c1cc2c(=O)oc3ccccc3c2n1C | 760
O=S(=O)(CCOc1ccccc1)NCc1ccc2c(c1)OCO2 | 806

1. CCCN1CCN(CCCNC(=O)Cn2c3ccccc3c3cnn(C)c(=O)c32)CC1
2. COc1ccc(CNC(=O)C(C)n2sc3ccccc3c2=O)cc1OC (stereo not given)
Quick one: lower RP-LC retention time, 1 or 2 ? Your answer should be the label of the entry you select.
1

----------
Test: gradient 5% acetonitrile 3 min, to 50% in 2 min, to 85% in 15 min, held 3 min, 100 µL/min
Conditions: column: Zorbax Extend-C18 2.1 x 50 mm; eluents: water / acetonitrile, 0.1% formic acid
OBSERVATION TYPE: RP-LC retention time (s)

COc1ccc(OCc2nnc3sc(-c4cc(CC(C)C)[nH]n4)nn23)cc1 | 917
Cc1ccc(NC(=O)N2CCc3nc(-c4ccc(F)cc4)ncc3C2)c(C)c1 | 979
CCC(C)NC(=O)N1CCCN(C2=NS(=O)(=O)C(c3ccc(C)cc3)=C2C)CC1 (centres undefined) | 816
CCN(CC)C(=O)c1cc2c(s1)CCC(C(=O)Nc1ccc3c(c1)OCO3)C2 (centres undefined) | 860
CN(C)c1ccc(CNC(=O)CCCN2C(=O)CCn3nc(-c4cccn4C)cc32)cc1 | 610
COCC(=O)N1CCCc2ccc(NC(=O)C3CC(=O)N(c4ccc(F)cc4)C3)cc21 (centres undefined) | 681
Fc1cccc(-c2noc(-c3ccc(N4CCN(C5CCCCC5)CC4)nc3)n2)c1 | 814

a. O=C(NCCN1CCOCC1)C1CCN(c2nc3cccnc3s2)CC1
b. COC(=O)c1cc(S(=O)(=O)N2CCCC2C(=O)NCc2ccccc2Cl)cn1C (centres undefined)
Between a and b , which one shows the larger RP-LC retention time value? Your answer should be the label of the entry you select.
b

----------
Assay: gradient 5% acetonitrile 3 min, to 50% in 2 min, to 85% in 15 min, held 3 min, 100 µL/min
Settings: column: Zorbax Extend-C18 2.1 x 50 mm; eluents: water / acetonitrile, 0.1% formic acid
OBSERVATION TYPE: RP-LC retention time (s)

Use these answered entries as a reference point.
CCN(CC)CCNC(=O)c1ccc(CS(=O)(=O)c2ccc(Br)cc2)o1 | 634
O=C(Nc1nc(-c2ccccc2)cs1)c1c(-c2ccc(Cl)cc2)nc2n1CCS2(=O)=O | 1080

a. COCCn1ncc(N2CCCC(CC(=O)O)C2)cc1=O (stereo not given)
b. COc1ccc(C2=C(C)C(Nc3ccccc3OC)=NS2(=O)=O)cc1
Between a and b , which one shows the larger RP-LC retention time value? Your answer should be the label of the entry you select.
b
(b: 925 s, a: 613 s)

----------
Experiment: gradient 5% acetonitrile 3 min, to 50% in 2 min, to 85% in 15 min, held 3 min, 100 µL/min
Conditions: column: Zorbax Extend-C18 2.1 x 50 mm; eluents: water / acetonitrile, 0.1% formic acid
OBSERVATION TYPE: RP-LC retention time (s)

COc1cc(CCC(=O)N2CCNc3ccccc3C2)cc(OC)c1OC | 710

1. O=C(COc1ccc(F)cc1)NCC1(c2cccs2)CC1
2. O=C(CN1CCN(c2nccn2-c2ccccc2F)CC1)Nc1ccc(F)cc1F
Quick one: lower RP-LC retention time, 1 or 2 ? Your answer should be the label of the entry you select.
2
(2: 562 s, 1: 882 s)

A. O=S(=O)(c1c(F)cccc1F)N1CCC2(CC1)OCCS2
B. COC(=O)c1ccc(CNC2CCN(c3ccc(C(=O)NC4CC4)cn3)C2)cc1 (stereo not given)
Quick one: lower RP-LC retention time, A or B ? Your answer should be the label of the entry you select.
B

A. O=C(Cc1ccc(Br)cc1)Nc1nc(-c2ccccc2)cs1
B. COc1ccc(CC(=O)Nc2c(-c3ccc(F)cc3)nc3ccccn23)cc1
Quick one: lower RP-LC retention time, A or B ? Your answer should be the label of the entry you select.
B
(B: 645 s, A: 1100 s)

----------
Test: gradient 5% acetonitrile 3 min, to 50% in 2 min, to 85% in 15 min, held 3 min, 100 µL/min
Conditions: column: Zorbax Extend-C18 2.1 x 50 mm; eluents: water / acetonitrile, 0.1% formic acid
OBSERVATION TYPE: RP-LC retention time (s)

Use these answered entries as a reference point.
Cc1ccc(N2CCC(NC(=O)c3cc(F)cc(F)c3)C2=O)cc1C (stereo not drawn) | 943
Cc1ccccc1Oc1nccnc1N1CCCC(C(=O)NCc2cccc(C(F)(F)F)c2)C1 (stereo not drawn) | 1120
COc1ccc(C(=O)N2CCC(c3cc(N)on3)CC2)cc1F | 659
Cc1cc(C)n2c(Nc3cccc(C(F)(F)F)c3)c(-c3cc(Br)ccc3O)nc2n1 | 1060

I. CCOc1ccc(CNC(=O)C2CCCN(c3cc(=O)n(C)c(=O)n3CC)C2)cc1 (stereo not drawn)
II. O=C(Nc1cccc([N+](=O)[O-])c1)C1(c2cccs2)CCOCC1
Between I and II , which one shows the larger RP-LC retention time value? Your answer should be the label of the entry you select.
I
(I: 812 s, II: 558 s)

----------
Assay: gradient 5% acetonitrile 3 min, to 50% in 2 min, to 85% in 15 min, held 3 min, 100 µL/min
Settings: column: Zorbax Extend-C18 2.1 x 50 mm; eluents: water / acetonitrile, 0.1% formic acid
OBSERVATION TYPE: RP-LC retention time (s)

Use these answered entries as a reference point.
O=c1ccc(-c2ccc(F)cc2)nn1CCc1nc(-c2ccc3c(c2)OCO3)no1 | 933
CC(Cc1cccs1)NC(=O)c1cnccn1 (stereo not given) | 706
COc1ccc(N2CCN(C(=O)C3CC(=O)N(c4ccc(C)c(C)c4)C3)CC2)nn1 (stereo not given) | 594
O=C(c1cc(C2CC2)[nH]n1)N1CCC(F)(F)C(COCC2CC2)C1 (stereo not given) | 805
O=C(c1ccc2oc(=O)n(CC(=O)N3CCc4ccccc43)c2c1)N1CCCCC1 | 845
Cc1cc(C)c2c(N3CCCC3)nc(C(=O)NC(C)c3ccccn3)nc2n1 (stereo not given) | 586

1. Cc1ccc(Nc2c(-c3ccc(N4CCOCC4)cc3)nc3ccccn23)cc1
2. COC(=O)c1c(C)oc2ccc(OCC(=O)c3ccc(F)cc3)cc12
Between 1 and 2 , which one shows the larger RP-LC retention time value? Your answer should be the label of the entry you select.
2
(2: 999 s, 1: 682 s)
